Source listed as paper PMC9953885.

The following compounds are listed with their measured % of control remaining values.
tested-target: human pancreatic lipase (hPL) (Homo sapiens)
Construct: gene PNLIP
condition-summary: 10 µM; inhibitor
reported-endpoint: % of control remaining (%)

> print(dat)
                                   compound  endpoint.unit  observed.measurement
1                 O=C(O)/C=C/c1ccc(O)c(O)c1              %                 71.45
2  COC(=O)[C@H]1[C@H]2C[C@@H]3c4[nH]c5cc(OC)ccc5c4CCN3C[C@H]2C[C@@H](OC(=O)c2cc(OC)c(OC)c(OC)c2)[C@@H]1OC              %                 94.24
3     Cc1nnc2n1-c1ccc(Cl)cc1C(c1ccccc1)=NC2              %                 68.13
4  CCOC(=O)C1=C(C)NC(C)=C(C(=O)OC)C1c1cccc([N+](=O)[O-])c1 (stereo not shown)              %                 92.86

---

tested-target: human pancreatic lipase (hPL) (Homo sapiens, UniProt P16233)
Construct: gene PNLIP
Sequence (P16233 17-465): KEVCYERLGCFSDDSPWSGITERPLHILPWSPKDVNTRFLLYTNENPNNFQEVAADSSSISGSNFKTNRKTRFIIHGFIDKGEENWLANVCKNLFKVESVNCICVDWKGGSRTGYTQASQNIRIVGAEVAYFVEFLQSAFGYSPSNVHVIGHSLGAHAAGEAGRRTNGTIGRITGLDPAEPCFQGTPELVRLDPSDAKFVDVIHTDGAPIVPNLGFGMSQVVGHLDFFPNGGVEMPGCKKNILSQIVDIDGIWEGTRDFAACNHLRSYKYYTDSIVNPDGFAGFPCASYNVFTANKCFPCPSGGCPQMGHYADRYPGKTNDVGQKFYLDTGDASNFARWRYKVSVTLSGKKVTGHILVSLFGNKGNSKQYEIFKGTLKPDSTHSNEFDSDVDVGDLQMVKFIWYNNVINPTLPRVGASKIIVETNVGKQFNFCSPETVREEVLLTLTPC
condition-summary: 10 µM; inhibitor
The following compounds are listed with their measured % of control remaining values.
reported-endpoint: % of control remaining (%)

> print(dat)
                                   compound  observed.measurement
1  Cc1cn([C@H]2C[C@H](N=[N+]=[N-])[C@@H](CO)O2)c(=O)[nH]c1=O [Zidovudine]                 73.04
2  COc1ccc(-c2cc(=O)c3c(O)cc(O)c(-c4cc(-c5cc(=O)c6c(O)cc(OC)cc6o5)ccc4OC)c3o2)cc1 [h10, sciadopitysin]                  5.25
3  COc1c(OC)c2occc2c2oc(=O)ccc12 [Pimpinellin]                 61.25
4  CC(=O)CC(c1ccccc1)c1c(O)c2ccccc2oc1=O (centres unmarked) [Warfarin sodium]                 84.05
5  COC(=O)C1=C(C)NC(C)=C(C(=O)OCC(C)C)C1c1ccccc1[N+](=O)[O-] (centres unmarked) [Nisoldipine]                 75.08
6  C=C1CC[C@@H]2[C@](C)(CO)[C@H](O)CC[C@@]2(C)[C@H]1C/C=C1\C=COC1=O [Dehydroandrographolide]                 89.55
7  NC(=O)N1c2ccccc2C[C@H](O)c2ccccc21 [Eslicarbazepine]                103.44
8  COc1cc(-c2coc3cc4c(c(OC)c3c2=O)OCO4)cc(OC)c1OC [Irisflorentin]                 66.38
